Data credit: patent US20240228562A1

The entries below come with measured kon values attached.
# System Name: T1, recombinant human CTGF-Fc protein (Creative Biomart) (human)
# T1 construct: Bought; also called human CTGF with a human IgG1 Fc Tag
# T1 sequence (chain, as listed by the source limits assumed): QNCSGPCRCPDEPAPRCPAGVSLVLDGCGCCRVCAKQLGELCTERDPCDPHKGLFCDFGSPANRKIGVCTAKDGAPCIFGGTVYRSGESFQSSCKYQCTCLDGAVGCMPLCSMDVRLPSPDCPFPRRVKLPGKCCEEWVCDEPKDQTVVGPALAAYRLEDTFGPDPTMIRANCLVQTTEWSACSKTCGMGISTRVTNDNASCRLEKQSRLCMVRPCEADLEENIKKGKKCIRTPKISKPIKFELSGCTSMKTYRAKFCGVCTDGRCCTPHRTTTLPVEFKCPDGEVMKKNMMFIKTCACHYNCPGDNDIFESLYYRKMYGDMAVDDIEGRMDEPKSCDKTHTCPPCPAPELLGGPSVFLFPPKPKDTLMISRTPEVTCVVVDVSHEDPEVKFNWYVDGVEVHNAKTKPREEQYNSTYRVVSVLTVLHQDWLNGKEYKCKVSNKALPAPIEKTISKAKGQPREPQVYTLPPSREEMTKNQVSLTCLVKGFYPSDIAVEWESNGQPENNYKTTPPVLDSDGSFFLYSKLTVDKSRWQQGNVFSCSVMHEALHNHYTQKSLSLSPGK
# Assay Details: SPR (Biacore)
Your answer should be a plain number; it is taken to be in M⁻¹ s⁻¹.

Value of measured kon for the entry lipocalin mutein of SEQ ID NO: 9 (designed binder, Parent hNGAL mutein; also called hNGAL mutein) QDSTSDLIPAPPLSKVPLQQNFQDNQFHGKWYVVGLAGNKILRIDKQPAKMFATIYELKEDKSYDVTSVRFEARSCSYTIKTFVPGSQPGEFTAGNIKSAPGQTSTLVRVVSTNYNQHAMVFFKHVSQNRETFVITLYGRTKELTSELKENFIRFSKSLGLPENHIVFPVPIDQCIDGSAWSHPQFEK : 79800

Value of measured kon for the entry lipocalin mutein of SEQ ID NO: 11 (designed binder, also called hNGAL mutein; not shown: C-terminal His-tag) QDSTSDLIPAPPLSKVPLQQNFQDNQFQGKWYVVGLAGNAILREDKQPAKMFATIYELKEDKSYDVTSVRFEAKSCSYTSKTFVPGSQPGEFTAGNIKSAPGQTSTLVRVVSTNYNQHAMVFFKHVSQNRETFVITLYGRTKELTSELKENFIRFSKSLGLPENHIVFPVPIDQCIDG : 44400

Value of measured kon for the entry lipocalin mutein of SEQ ID NO: 5 (designed binder, also called hNGAL mutein; not shown: C-terminal His-tag) QDSTSDLIPAPPLSKVPLQQNFQDNQFQGKWYVVGKAGNALREDKEPPKMWATIYELKEDKSYDVTHVHFLTKKCKYLIDTFVPGSQPGEFTIGAIKSGPGLTSPLVRVVSTNYNQHAMVFFKWVSQNREWFTITLYGRTKELTSELKENFIRFSKSLGLPENHIVFPVPIDQCIDG : 211000

Value of measured kon for the entry lipocalin mutein of SEQ ID NO: 28 (designed binder, also called hNGAL mutein; not shown: C-terminal His-tag) QDSTSDLIPAPPLSKVPLQQNFQDNQFQGKWYVVGLAGNYRLREDKDPSKMGATIYELKEDKSYDVTQVQFDDKKCLYVIETFVPGSQPGEFTLGAIKSYPGLTSQLVRVVSTNYNQHAMVFVKKVWPNLEYFQIVLYGRTKELTSELKENFIRFSKSLGLPENHIVFPVPIDQCIDG : 50400

Value of measured kon for the entry lipocalin mutein of SEQ ID NO: 12 (designed binder, also called hNGAL mutein; not shown: C-terminal His-tag) QDSTSDLIPAPPLSKVPLQQNFQDNQFQGKWYVVGLAGNAILREDKYPAKMFATIYELKEDKSYDVTSVRFENKSCVYTIKTFVPGSQPGEFTTGNIKSAPGQTSTLVRVVSTNYNQHAMVFFKHVSQNREFFVITLYGRTKELTSELKENFIRFSKSLGLPENHIVFPVPIDQCIDG : 55600

Value of measured kon for the entry lipocalin mutein of SEQ ID NO: 19 (designed binder, also called hNGAL mutein; not shown: C-terminal His-tag) QDSTSDLIPAPPLSKVPLQQNFQDNQFQGKWYVVGLAGNAILREDKQPAKMFATIYELKEDKSYDVTSVRFEAKSCSYTIKTFVPGSQPGEFTAGNIKSAPGQTSTLVRVVSTNYNQHAMVFHKAVSQNRESFVITLYGRTKELTSELKENFIRFSKSLGLPENHIVFPVPIDQCIDG : 56600
